Biological target: human RXFP1 (Homo sapiens, UniProt Q9HBX9)
Sequence (Q9HBX9 1-757): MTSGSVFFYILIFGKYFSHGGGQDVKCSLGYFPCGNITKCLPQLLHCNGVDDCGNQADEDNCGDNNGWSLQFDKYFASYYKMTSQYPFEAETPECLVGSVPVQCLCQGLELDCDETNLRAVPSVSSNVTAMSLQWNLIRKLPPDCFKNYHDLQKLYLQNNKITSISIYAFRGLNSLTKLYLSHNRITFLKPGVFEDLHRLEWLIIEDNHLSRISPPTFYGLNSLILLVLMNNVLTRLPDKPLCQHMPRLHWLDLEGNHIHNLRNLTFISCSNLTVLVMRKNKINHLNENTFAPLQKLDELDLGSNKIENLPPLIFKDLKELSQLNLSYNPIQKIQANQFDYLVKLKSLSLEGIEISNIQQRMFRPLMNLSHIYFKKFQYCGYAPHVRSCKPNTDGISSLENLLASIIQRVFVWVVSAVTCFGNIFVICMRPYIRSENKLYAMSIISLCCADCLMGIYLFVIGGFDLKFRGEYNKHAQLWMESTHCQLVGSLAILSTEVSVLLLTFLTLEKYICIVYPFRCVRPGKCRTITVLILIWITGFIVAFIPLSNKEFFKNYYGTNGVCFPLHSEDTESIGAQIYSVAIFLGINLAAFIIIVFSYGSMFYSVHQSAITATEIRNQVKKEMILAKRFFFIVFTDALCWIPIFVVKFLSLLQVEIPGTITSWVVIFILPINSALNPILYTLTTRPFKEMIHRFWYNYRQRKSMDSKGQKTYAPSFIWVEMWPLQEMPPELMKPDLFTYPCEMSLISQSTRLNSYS
Experiment: RXFP1 Hu cAMP (Test A)
Type: cell-based
Set-up: expressed in transfected cells; host or cells: Jump-In T-REx CHO-K1 cells (ThermoFisher), induced with 10 ng/ml doxycycline for 24 h
Conditions: RXFP1 Hu cAMP; read-out: Test A EC50
quantityName: EC50 (nM)

(1) COc1cc(F)c(OCCCCC(=O)O)cc1C(=O)N[C@H]1[C@@H](C(=O)Nc2cccc(S(=O)(=O)C(F)(F)F)c2)[C@@H]2C=C[C@H]1C2 (racemic) [Example 451]
(2) COc1cc(C#N)c(O[C@H]2CC[C@@](C)(C(=O)O)CC2)cc1C(=O)N[C@@H]1[C@H]2CC[C@H](C2)[C@@H]1C(=O)NCC1(OC)CC1 [Example 111]
(3) COc1cc(C#N)c(O[C@H]2CC[C@@](C)(C(=O)O)CC2)cc1C(=O)N[C@@H]1[C@H]2CC[C@H](C2)[C@@H]1C(=O)NC1CCCCC1 [Example 121]
-- ask Please give the order of these compounds when sorted by EC50, largest value leading. Output spec: labels arranged per the requested ranking.
-- reply 2, 1, 3
